ASSAY_TARGET: T1, human c-Met/Fc chimera (R&D Systems) (human, UniProt P08581 25-932)
T1 construct: Bought from R&D Systems; Printed once as 'c-Met/Fe chimera' [sic]; also called human c-Met/Fe chimera; not shown: Fc part (and any linker or tag) of the bought chimera
T1 sequence (P08581 25-932 limits assumed, change not shown): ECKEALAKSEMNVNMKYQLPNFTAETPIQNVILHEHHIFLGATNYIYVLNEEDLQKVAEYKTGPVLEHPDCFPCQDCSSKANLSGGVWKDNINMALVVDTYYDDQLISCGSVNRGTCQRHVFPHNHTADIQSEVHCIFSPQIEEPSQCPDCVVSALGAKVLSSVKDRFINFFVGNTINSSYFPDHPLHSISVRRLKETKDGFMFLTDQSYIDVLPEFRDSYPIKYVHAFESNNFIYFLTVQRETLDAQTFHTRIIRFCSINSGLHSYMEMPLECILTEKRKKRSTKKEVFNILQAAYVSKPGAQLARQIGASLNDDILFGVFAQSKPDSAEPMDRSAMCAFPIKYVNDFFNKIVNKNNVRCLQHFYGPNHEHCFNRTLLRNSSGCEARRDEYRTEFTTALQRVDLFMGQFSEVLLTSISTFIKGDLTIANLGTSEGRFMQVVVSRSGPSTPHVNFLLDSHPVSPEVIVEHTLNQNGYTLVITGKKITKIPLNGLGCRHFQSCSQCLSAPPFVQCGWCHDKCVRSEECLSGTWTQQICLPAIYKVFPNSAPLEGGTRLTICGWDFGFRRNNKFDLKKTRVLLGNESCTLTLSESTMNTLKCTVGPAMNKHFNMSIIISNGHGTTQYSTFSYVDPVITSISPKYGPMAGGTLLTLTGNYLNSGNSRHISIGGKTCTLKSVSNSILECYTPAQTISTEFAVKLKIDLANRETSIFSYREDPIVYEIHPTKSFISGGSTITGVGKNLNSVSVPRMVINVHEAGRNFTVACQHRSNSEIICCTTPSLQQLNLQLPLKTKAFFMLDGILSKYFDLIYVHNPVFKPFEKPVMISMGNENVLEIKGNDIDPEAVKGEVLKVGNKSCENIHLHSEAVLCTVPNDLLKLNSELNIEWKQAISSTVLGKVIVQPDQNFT
TEST_DESCRIPTION: fluorescence polarisation (anisotropy), 5 nM dye-labelled peptide, c-Met/Fc 0-250 nM, one-site fit
Bridges are numbered along the chain shown (N, C = ends).
EXPERIMENTAL_ENDPOINT: pKd
One number for each entry, as −log10 of the molar value.

Some binders with recorded pKd:
Prompt: What measured pKd goes with Ac-AGSCYCSGPPRFECWCYETEGTGGGK-NH2 (disulfide 6-14, 4-16; not fully specified (residue 26); also: DY-631 dye attached, site not given here) [Compound 2 ([Peptide 1]-DY-631 conjugate)] ?
Response: 9.30

Prompt: What measured pKd goes with Ac-AGSCYCSGPPRFECWCYETEGTGGGK-NH2 (disulfide 6-14, 4-16; not fully specified (residue 26); also: DY-651 dye attached, site not given here) [Compound 5 ([Peptide 1]-DY-651 conjugate)] ?
Response: 8.66

Prompt: What measured pKd goes with Ac-AGSCYCSGPPRFECWCYETEGTGGGK-NH2 (disulfide 6-14, 4-16; not fully specified (residue 26); also: DY-652 dye attached, site not given here) [Compound 6 ([Peptide 1]-DY-652 conjugate)] ?
Response: 9.05

For each of the binders below, state pKd.
1. Ac-AGSCYCSGPPRFECWCYETEGTGGGK-NH2 (disulfide 6-14, 4-16; not fully specified (residue 26); also: DY-630 dye attached, site not given here, Printed in three-letter code, turned into one-letter code here) [Compound 1 ([Peptide 1]-DY-630 conjugate)]
2. Ac-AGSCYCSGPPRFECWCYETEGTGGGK-NH2 (disulfide 6-14, 4-16; not fully specified (residue 26); also: DY-650 dye attached, site not given here) [Compound 4 ([Peptide 1]-DY-650 conjugate)]

Response:
1: 8.66; 2: 8.49
